Listing of recorded GI50 by entry.
- Test system: IGROV-1
- Assay Remarks: NCI tumour cell line growth inhibition, 48 h
Activity calls are given as the source filed them. Cut-off read from the data, not from the text of the source: active = GI50 up to about 1.1 µM and inactive = higher.

Completed entries (count: 3):
INSERT INTO assay_data (compound, assayed_target, value_measured) VALUES
  ('COC1OC(COC(=O)c2cc(O)c(O)c(O)c2)C(OC(=O)c2cc(O)c(O)c(O)c2)C(OC(=O)c2cc(O)c(O)c(O)c2)C1OC(=O)c1cc(O)c(O)c(O)c1 (centres undefined)', 'IGROV-1', '27.4 µM (inactive)'),
  ('CN(C)/C=N/S(=O)(=O)c1nn2c(C=O)c(-c3cc4ccccc4oc3=O)nc2s1', 'IGROV-1', '9.4 µM (inactive)'),
  ('COc1ccc2c(C)cc(C)nc2n1', 'IGROV-1', '> 100 µM (inactive)');

Please look at the following compound next.
The recorded GI50 with IGROV-1 for C[C@]12CC[C@@H]3c4cc(Br)c(O)c(Br)c4CC[C@H]3[C@@H]1CC(Br)C2=O (some centres undefined) was 9.23 µM (inactive)

###

- System: A549
- Assay Remarks: NCI tumour cell line growth inhibition, 48 h
Activity calls are given as the source filed them. No stated cut-off is given here; in the data, active = GI50 up to about 1.1 µM and inactive = higher. *1 amine or outer side, *2 acyl side, *3 side chain or, on linkers, in order; H or OH if unused. Where a SMILES comes first, the peptide text is derived from it. The star is where a group is joined. γGlu = O=C(O)[CH](CCC(=O)[*:2])N[*:1]; NHOH = ON*
Result Type: GI50

These recorded examples may help you get a feel for the data.
INSERT INTO measurements (compound, value_measured) VALUES
  ('C=C(CCC/C(C)=C/C=C/[C@H](C)CCCc1ccoc1)C[C@@H]1OC(=O)[C@H](C)[C@@H]1O', '5.7 µM (inactive)'),
  ('Cc1cc(O)nc(NN2C(Cl)C(=O)C2c2c(O)ccc3ccccc23)n1 (stereo unspecified)', '36.2 µM (inactive)'),
  ('Cc1ccc(C2=C(c3ccccc3)C(Br)(c3ccccc3)C(c3ccccc3)=C2c2ccc(C)cc2)cc1', '> 100 µM (inactive)'),
  ('O=C1/C(=C/c2ccc(F)cc2)CNC/C1=C\c1ccc(F)cc1', '2.92 µM (inactive)'),
  ('Cc1ccc2c(O)cc(-c3cccs3)nc2n1', '9.79 µM (inactive)');

The recorded GI50 for entry CCCCCCCCCCSC(=O)NC equals 37.8 µM (inactive)

For record NC(CCC(=O)NC(CCC(=O)NO)C(=O)NCC(=O)O)C(=O)O (stereo unspecified) (γGlu-Glu(NHOH)-Gly-OH; configuration not given here) the listed GI50 is > 100 µM (inactive)

###

- Tested on: NCI-H460
- Assay Remarks: NCI tumour cell line growth inhibition, 48 h
Active and inactive are the calls of the source. Rule as the data show it: active = GI50 up to about 1.1 µM and inactive = higher.
Choose the fitting class; nothing outside active, inactive is accepted.

Examples from the recorded data:
INSERT INTO assay_data (molecule, group_label) VALUES
  ('COc1cc(CC2c3cc(OC)c(OC)cc3CCN2C)ccc1O (stereo unspecified)', 'inactive'),
  ('CN(CCc1ccccn1)/[N+]([O-])=N/O.CNCCc1ccccn1', 'inactive'),
  ('COc1ccc(Cn2c3c(cc(OS(=O)(=O)C(F)(F)F)c2=O)Cc2ccccc2-3)cc1', 'inactive'),
  ('CC1=C(C(=O)NNC(=O)C[N+](C)(C)C)CC(C(=O)NNC(=O)C[N+](C)(C)C)=C(C)N1', 'inactive'),
  ('Oc1ccc2ccccc2c1-c1nnc(CCCCCCCCc2nnc(-c3c(O)ccc4ccccc34)o2)o1', 'active');

Fill in: this test's call for NNC(=O)CNc1cccc(Br)c1 is ___ inactive
